Tested on: ginsenoside glycosidase I from ginseng plants
Assay: Hydrolysis of ginsenosides with fraction 52 (ginsenoside glycosidase I) from ginseng plant
Assay type: biochemical
Settings: Fraction 52; substrate 0.5%; 50° C., pH 5.0, 18 hours
ENDPOINT LABEL: Percentage of F2 in the reaction product (%)
One number for each entry, in %.

INSERT INTO measurements (compound, number) VALUES
  ('CC(C)=CCC[C@](C)(O[C@@H]1O[C@H](CO[C@@H]2O[C@@H](CO)[C@H](O)[C@H]2O)[C@@H](O)[C@H](O)[C@H]1O)[C@H]1CC[C@]2(C)[C@@H]1[C@H](O)C[C@@H]1[C@@]3(C)CC[C@H](O[C@@H]4O[C@H](CO)[C@@H](O)[C@H](O)[C@H]4O[C@@H]4O[C@H](CO)[C@@H](O)[C@H](O)[C@H]4O)C(C)(C)[C@@H]3CC[C@]12C [Rc, ginsenoside Rc]', 55);

For every listed record, write down its Percentage of F2 in the reaction product.
1. CC(C)=CCC[C@](C)(O[C@@H]1O[C@H](CO)[C@@H](O)[C@H](O)[C@H]1O)[C@H]1CC[C@]2(C)[C@@H]1[C@H](O)C[C@@H]1[C@@]3(C)CC[C@H](O[C@@H]4O[C@H](CO)[C@@H](O)[C@H](O)[C@H]4O[C@@H]4O[C@H](CO)[C@@H](O)[C@H](O)[C@H]4O)C(C)(C)[C@@H]3CC[C@]12C [Rd, ginsenoside Rd]
2. CC(C)=CCC[C@](C)(O[C@@H]1O[C@H](CO[C@@H]2OC[C@H](O)[C@H](O)[C@H]2O)[C@@H](O)[C@H](O)[C@H]1O)[C@H]1CC[C@]2(C)[C@@H]1[C@H](O)C[C@@H]1[C@@]3(C)CC[C@H](O[C@@H]4O[C@H](CO)[C@@H](O)[C@H](O)[C@H]4O[C@@H]4O[C@H](CO)[C@@H](O)[C@H](O)[C@H]4O)C(C)(C)[C@@H]3CC[C@]12C [Rb2, ginsenoside Rb2]
3. CC(C)=CCC[C@](C)(O[C@@H]1O[C@H](CO[C@@H]2O[C@H](CO)[C@@H](O)[C@H](O)[C@H]2O)[C@@H](O)[C@H](O)[C@H]1O)[C@H]1CC[C@]2(C)[C@@H]1[C@H](O)C[C@@H]1[C@@]3(C)CC[C@H](O[C@@H]4O[C@H](CO)[C@@H](O)[C@H](O)[C@H]4O[C@@H]4O[C@H](CO)[C@@H](O)[C@H](O)[C@H]4O)C(C)(C)[C@@H]3CC[C@]12C [Rb1, ginsenoside Rb1]

1: 40; 2: 65; 3: 70

----------
Test system: ginsenoside glycosidases from A. niger
Test: Hydrolysis of ginsenosides with crude ginsenoside glycosidases from A. niger, products measured by TLC
Format: biochemical, Aspergillus niger
Settings: pH 5, 30° C., 18 hours
Experimental: Aspergillus niger FFCCDL-48 g was cultured in a medium containing 1% ginseng extracts and 3% wheat bran extracts at 30° C. for 54 hours. […] 100 mg each of ginsenosides Rb1, Rb2, Rc and Rd and 10 mg of ginsenoside Rg3 were dissolved in separate tubes containing 10 ml of 0.01M acetate buffer pH 5. […] The products were measured by thin layer chromatography (TLC) (Silica gel 60-F254, Merck; chloroform:methanol:water 70:30:5). […]
ENDPOINT LABEL: Percentage of aglycone in the reaction product (%)
Answers are plain numbers, in %.

These recorded examples may help you get a feel for the data.
INSERT INTO assay_data (compound, number) VALUES
  ('CC(C)=CCC[C@](C)(O[C@@H]1O[C@H](CO[C@@H]2O[C@H](CO)[C@@H](O)[C@H](O)[C@H]2O)[C@@H](O)[C@H](O)[C@H]1O)[C@H]1CC[C@]2(C)[C@@H]1[C@H](O)C[C@@H]1[C@@]3(C)CC[C@H](O[C@@H]4O[C@H](CO)[C@@H](O)[C@H](O)[C@H]4O[C@@H]4O[C@H](CO)[C@@H](O)[C@H](O)[C@H]4O)C(C)(C)[C@@H]3CC[C@]12C [Rb1, ginsenoside Rb1]', 5),
  ('CC(C)=CCC[C@](C)(O[C@@H]1O[C@H](CO[C@@H]2OC[C@H](O)[C@H](O)[C@H]2O)[C@@H](O)[C@H](O)[C@H]1O)[C@H]1CC[C@]2(C)[C@@H]1[C@H](O)C[C@@H]1[C@@]3(C)CC[C@H](O[C@@H]4O[C@H](CO)[C@@H](O)[C@H](O)[C@H]4O[C@@H]4O[C@H](CO)[C@@H](O)[C@H](O)[C@H]4O)C(C)(C)[C@@H]3CC[C@]12C [Rb2, ginsenoside Rb2]', 3);

Quick note, Percentage of aglycone in the reaction product for CC(C)=CCC[C@](C)(O[C@@H]1O[C@H](CO[C@@H]2O[C@@H](CO)[C@H](O)[C@H]2O)[C@@H](O)[C@H](O)[C@H]1O)[C@H]1CC[C@]2(C)[C@@H]1[C@H](O)C[C@@H]1[C@@]3(C)CC[C@H](O[C@@H]4O[C@H](CO)[C@@H](O)[C@H](O)[C@H]4O[C@@H]4O[C@H](CO)[C@@H](O)[C@H](O)[C@H]4O)C(C)(C)[C@@H]3CC[C@]12C [Rc, ginsenoside Rc] landed at 5
